test system: MCF7 breast; experiment: NCI tumour cell line growth inhibition, 48 h; in the data active = GI50 below about 0.43 µM; inactive = the rest
Pick from YES for active, NO for inactive when you respond.

Please review the entries below; each comes with its answer.
INSERT INTO results (compound, classification) VALUES
  ('CCN(CC)CCC(CNc1c(C)cnc2cc(Cl)ccc12)c1ccc(Cl)cc1 (stereo not drawn)', 'NO'),
  ('C=CCCCOC1[C@H](OCc2ccccc2)C(OCc2ccccc2)C(OC)O[C@@H]1CNC(=O)c1cccc(I)c1 (stereo partly drawn)', 'NO'),
  ('COc1cc(C2CC(=O)Nc3c2cc(Br)c2ccccc32)cc(Br)c1OC (stereo not drawn)', 'NO'),
  ('CC1=C(C(=O)Nc2ccc(F)c(Cl)c2)C(c2ccccc2O)NC(=O)N1 (stereo not drawn)', 'NO'),
  ('COc1ccc(-c2ccc(/C=N/n3c(COc4ccccc4Cl)n[nH]c3=S)o2)c([N+](=O)[O-])c1', 'NO'),
  ('Cc1c2ccncc2c(C)c2c1c1cc(CO)ccc1n2C', 'YES');

Shifting focus to the compound that follows.
Q) Which result was noted for this compound in the test: NS(=O)(=O)c1cccc(-c2ccc3c(NC(=O)C4CC4)n[nH]c3c2)c1
A) NO

Entry source: PubChem BioAssay (NCI)
